A collection of compounds and their measured composite z-score
- TARGET_OR_TEST_SYSTEM: Follistatin (Homo sapiens) (UniProt P19883)
- Sequence (P19883 whole entry, looked up): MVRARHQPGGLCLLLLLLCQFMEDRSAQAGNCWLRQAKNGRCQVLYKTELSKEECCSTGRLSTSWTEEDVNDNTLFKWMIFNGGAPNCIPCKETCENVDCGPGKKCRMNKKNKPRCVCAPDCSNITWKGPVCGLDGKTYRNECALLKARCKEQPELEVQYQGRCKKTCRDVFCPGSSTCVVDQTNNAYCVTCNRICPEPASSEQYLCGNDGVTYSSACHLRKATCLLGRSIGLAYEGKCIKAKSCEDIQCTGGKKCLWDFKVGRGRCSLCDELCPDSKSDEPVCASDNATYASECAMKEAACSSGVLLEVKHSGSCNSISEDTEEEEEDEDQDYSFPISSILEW
- ASSAY_PROTOCOL: FST protein binding to printed compounds – biochemical, small-molecule microarray, 635/667 nm fluorescence, primary screen (AID 1132)
- TEST_PARAMETERS: 635 nm fluorescence, higher = more signal
OBSERVED_PROPERTY: composite z-score

>  <COMPOUND>
COC(=O)[C@@]1(Cc2ccc(OC)cc2)[C@H]2c3cc(C(=O)N(C)C)n(CCF)c3C[C@H]2CN1C(=O)c1ccccc1

>  <MEASURED_VALUE>
0.887

$$$$
>  <COMPOUND>
CC(C)(C)OC(=O)CC[C@@]1(C(=O)N2CCCCC2)N=C(c2ccc(OCCCO)cc2)O[C@@H]1c1ccccc1N=[N+]=[N-]

>  <MEASURED_VALUE>
1.26

$$$$
>  <COMPOUND>
CCC[C@@H]1C[C@@]1(CCC)[C@@H](NC(=O)c1cccs1)c1ccc(Cl)cc1

>  <MEASURED_VALUE>
-1.42

$$$$
>  <COMPOUND>
C=CCC(OC(C)=O)[C@@H]1[C@@H](N(Cc2cccc3ccccc23)C(=O)c2ccc(C)cc2)c2cc(OCCCO)ccc2N1C(=O)c1ccc2ccccc2c1 (some centres undefined)

>  <MEASURED_VALUE>
0.672

$$$$

====

- TARGET_OR_TEST_SYSTEM: Follistatin (Homo sapiens) (UniProt P19883)
- ASSAY_PROTOCOL: FST protein binding to printed compounds – biochemical, small-molecule microarray, 635/667 nm fluorescence, primary screen (AID 1132)
- TEST_PARAMETERS: 635 nm fluorescence, higher = more signal

>  <COMPOUND>
O=c1c2ccc(Br)cc2nc(-c2ccccc2)n1Cc1cccc(O)c1

>  <TARGET_OR_TEST_SYSTEM>
Follistatin (Homo sapiens) (UniProt P19883)

>  <composite z-score>
0.346

$$$$
>  <COMPOUND>
CN(C)C(=O)[C@@]1(CCC(=O)OC(C)(C)C)COC(c2ccc(OCCCO)cc2)=N1

>  <TARGET_OR_TEST_SYSTEM>
Follistatin (Homo sapiens) (UniProt P19883)

>  <composite z-score>
0.625

$$$$
>  <COMPOUND>
OCCCC1=CC(c2cccs2)N(Cc2cccc(OC(F)(F)F)c2)CC1 (stereo not given)

>  <TARGET_OR_TEST_SYSTEM>
Follistatin (Homo sapiens) (UniProt P19883)

>  <composite z-score>
-0.17

$$$$
>  <COMPOUND>
COC(=O)[C@@]1(Cc2ccc(F)cc2)[C@H]2c3cc(C(=O)N(C)C)n(CCSCCO)c3C[C@H]2CN1C(=O)c1ccccc1

>  <TARGET_OR_TEST_SYSTEM>
Follistatin (Homo sapiens) (UniProt P19883)

>  <composite z-score>
0.297

$$$$
>  <COMPOUND>
C=CC[C@]1(C(=O)N2CCOCC2)N=C(c2ccc(OCCCO)cc2)O[C@H]1c1ccccc1CN=[N+]=[N-]

>  <TARGET_OR_TEST_SYSTEM>
Follistatin (Homo sapiens) (UniProt P19883)

>  <composite z-score>
1.28

$$$$

====

- TARGET_OR_TEST_SYSTEM: Dickkopf-related protein 1 (Homo sapiens) (UniProt O94907)
- Sequence (O94907 whole entry, looked up): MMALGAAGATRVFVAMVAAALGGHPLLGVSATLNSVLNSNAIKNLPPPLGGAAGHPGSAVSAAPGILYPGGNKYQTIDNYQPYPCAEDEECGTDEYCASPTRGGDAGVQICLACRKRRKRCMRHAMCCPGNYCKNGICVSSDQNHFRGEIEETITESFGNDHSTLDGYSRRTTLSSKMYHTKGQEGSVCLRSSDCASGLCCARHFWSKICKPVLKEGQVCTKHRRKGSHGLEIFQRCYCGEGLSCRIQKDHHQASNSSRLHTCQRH
- ASSAY_PROTOCOL: small molecules binding DKK1 protein – biochemical, small-molecule microarray, 635 nm fluorescence scan, primary screen (AID 1106);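 note: score merges emission near 667 nm with signal to noise over three replicate slides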
- TEST_PARAMETERS: higher = more signal
Note that class boundaries on composite z-score are lower band (below -0.3), central band (-0.3 to below 0.5), upper band (0.5 or more)

>  <COMPOUND>
CN1C(=O)C2C=CC(C(O)COCc3ccccc3)N(Nc3ccccc3)C2C1=O (stereo not given)

>  <CLASS>
central band

$$$$
>  <COMPOUND>
OCc1ccc(-c2cc[n+](Cc3cccc(OC(F)(F)F)c3)cc2)cc1

>  <CLASS>
upper band

$$$$
>  <COMPOUND>
CC1CC/C=C\[C@H]2OC34C=CCN(Cc5ccccc5)C(=O)[C@H]3N(CCO)C(=O)[C@@H]4C2C(=O)O1 (stereo not given in full)

>  <CLASS>
lower band

$$$$
>  <COMPOUND>
C#CCOC(=O)N[C@H](C=CCCCC)c1ccccc1

>  <CLASS>
lower band

$$$$
>  <COMPOUND>
COCCCNC(=O)[C@@]1(Cc2ccccc2N=[N+]=[N-])N=C(c2ccc(OCCCO)cc2)O[C@H]1c1ccccc1CN=[N+]=[N-]

>  <CLASS>
lower band

$$$$
>  <COMPOUND>
CCCNC(=O)[C@@H]1c2ccccc2C(=O)N(CC23CC4CC(CC(C4)C2)C3)[C@H]1c1ccc(CO)cc1

>  <CLASS>
upper band

$$$$
>  <COMPOUND>
CCCCC(CC)C(O)C1C=CC2C(=O)NC(=O)C2N1Nc1ccccn1 (stereo not given)

>  <CLASS>
central band

$$$$
>  <COMPOUND>
CC(C)(C)OC(=O)CC[C@]1(C(=O)N2CCCCC2)N=C(c2ccc(OCCCO)cc2)O[C@H]1c1ccccc1CN=[N+]=[N-]

>  <CLASS>
central band

$$$$
>  <COMPOUND>
COCCOC(=O)N1C(=O)[C@@]2(c3cc(C#Cc4ccc(OC)cc4)ccc31)[C@H](c1ccc(OCCO)cc1)N1[C@H](c3ccccc3)[C@H](c3ccccc3)OC(=O)[C@H]1[C@@H]2C(N)=O

>  <CLASS>
upper band

$$$$
>  <COMPOUND>
COc1ccc([Si](C)(C)[C@H]2[C@H](CCn3cc(CCO)nn3)O[C@@]3(C(=O)N(Cc4cccc(N5C(=O)c6cccc7cccc5c67)c4)c4ccccc43)[C@@H]2C)cc1

>  <CLASS>
upper band

$$$$
>  <COMPOUND>
CC(C)C(CO)N1C(=O)[C@@H]2[C@H]3C(=O)OCC=C[C@H]3OC23C=CCN(CCN2CCOCC2)C(=O)[C@@H]13 (stereo not given in full)

>  <CLASS>
central band

$$$$
>  <COMPOUND>
COC(=O)C(CC#Cc1ccc2c(c1)[C@]1(C(=O)N2)[C@H](C(=O)N2CCc3cc(OC)c(OC)cc3C2)[C@H]2C(=O)O[C@H](c3ccccc3)[C@H](c3ccccc3)N2[C@@H]1c1ccc(OCCO)cc1)C(=O)OC

>  <CLASS>
upper band

$$$$
>  <COMPOUND>
O=C1c2ccccc2C(=O)C2CC([C@H]3Oc4ccccc4S(=O)(=O)N4CCC[C@@H]34)=CCC12 (stereo not given in full)

>  <CLASS>
central band

$$$$
>  <COMPOUND>
CC(C)CNC(=O)[C@@]1(c2ccc([N+](=O)[O-])cc2)CC(=O)N(C(C)C)[C@@H]1c1ccc(CO)cc1

>  <CLASS>
lower band

$$$$
>  <COMPOUND>
COc1ccc(CCNC(=O)[C@@H]2c3ccccc3C(=O)N(Cc3ccccc3C(F)(F)F)[C@H]2c2ccc(CO)cc2)cc1

>  <CLASS>
lower band

$$$$

====

A collection of molecules and their measured z-score
- ASSAY_PROTOCOL: S. pombe growth modifiers, basal conditions – strain 972, OD600, 24 h, no modulator, primary screen (AID 1090);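 note: basal condition with compound alone and no growth modifier present; test concentration not given here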
- TEST_PARAMETERS: S. pombe 972 growth, higher = more signal, called active from +8 up or from −8 down
Activity calls are given as the source filed them.

>  <MOLECULE>
COc1ccc([Si](C)(C)[C@@H]2[C@@H](CCO)O[C@]3(C(=O)N(Cc4ccccc4)c4ccc(N5CCCCC5=O)cc43)[C@H]2C)cc1

>  <z-score>
-0.536 (inactive)

$$$$
>  <MOLECULE>
COC(=O)c1ccc(OC)c(/C=C\CC(CCc2ccccc2)OC(=O)c2ccncc2)c1 (stereo not drawn)

>  <z-score>
-1.34 (inactive)

$$$$
>  <MOLECULE>
CCCC=C(CCC)[C@@H](NS(=O)(=O)CC)c1ccccc1

>  <z-score>
1.22 (inactive)

$$$$
>  <MOLECULE>
C=CC[C@@]1(C(=O)NCCN2CCOCC2)N=C(c2ccc(OCCCO)cc2)O[C@@H]1c1ccccc1

>  <z-score>
0.132 (inactive)

$$$$
>  <MOLECULE>
[N-]=[N+]=NCc1ccccc1[C@H]1OC(c2ccc(OCCCO)cc2)=N[C@@]1(Cc1ccccc1N=[N+]=[N-])C(=O)NCCN1CCOCC1

>  <z-score>
-13.9 (active)

$$$$
>  <MOLECULE>
CC1CC/C=C\[C@H]2OC34C=CCN(Cc5ccccc5)C(=O)[C@H]3N(CCO)C(=O)[C@@H]4C2C(=O)O1 (stereo partly drawn)

>  <z-score>
-0.791 (inactive)

$$$$
>  <MOLECULE>
COc1ccccc1CN1C(=O)c2ccccc2[C@@H](C(=O)NCC(C)C)[C@@H]1c1ccc(CO)cc1

>  <z-score>
-0.288 (inactive)

$$$$
>  <MOLECULE>
CCCCC(=C=CC[C@H](O)c1cccc(OCCO)c1)C[C@H](O)COCc1ccccc1

>  <z-score>
-0.586 (inactive)

$$$$
